Molecular target: human recombinant CBL-b (human Biotin CBL-b recombinant protein a.a. 39-426) (Homo sapiens, UniProt Q13191)
Construct: human Biotin CBL-b recombinant protein a.a; 39-426; Biotin (biotinylated)
Sequence (Q13191 39-426): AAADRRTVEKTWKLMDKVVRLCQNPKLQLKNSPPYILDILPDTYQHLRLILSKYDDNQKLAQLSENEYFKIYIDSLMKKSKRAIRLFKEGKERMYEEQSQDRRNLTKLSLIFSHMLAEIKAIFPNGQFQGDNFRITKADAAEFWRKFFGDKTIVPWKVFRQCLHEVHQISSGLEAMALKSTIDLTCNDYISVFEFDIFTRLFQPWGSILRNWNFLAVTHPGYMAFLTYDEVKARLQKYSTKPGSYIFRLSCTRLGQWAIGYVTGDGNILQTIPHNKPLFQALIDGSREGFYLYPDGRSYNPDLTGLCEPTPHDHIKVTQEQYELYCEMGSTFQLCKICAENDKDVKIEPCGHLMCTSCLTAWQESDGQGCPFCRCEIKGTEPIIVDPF
Assay: Biochemical assay for CBL-b inhibition (ligand displacement TR-FRET)
Conditions: 50 nM CBL-b, 0.3 μM Bodipy FL-Probe, read-out: IC50 (CBL-b inhibition, group)
pIC50: −log10 of the molar value.
REPORTED_PROPERTY: pIC50

[[record]]
molecule = "Cc1cc(CNCC2(O)CCCC2)cc(N2Cc3ccc(-c4ccc(F)cc4-c4nncn4C)cc3C2=O)n1"
experimental_result = "> 7.10"

[[record]]
molecule = "Cc1nc(CN2CCC[C@H](C)C2)cc(N2Cc3ccc(C4(Cc5nncn5C)COC4)cc3C2=O)n1"
experimental_result = "> 7.10"

[[record]]
molecule = "Cc1cc(C(C)NCC2CCC2)cc(N2Cc3ccc(-c4ccc(Cl)cc4-c4nncn4C)cc3C2=O)n1 (centres unmarked)"
experimental_result = "> 7.10"

[[record]]
molecule = "Cn1cnnc1CC1(c2ccc3c(c2)C(=O)N(c2cc(CNCc4ncco4)cc(Cl)n2)C3)COC1"
experimental_result = "5.30 to 6.52"

[[record]]
molecule = "CC1CN(Cc2cc(N3Cc4ccc(C5(Cc6nncn6C)COC5)cc4C3=O)nc(C(F)(F)F)c2)CCC1(F)F (centres unmarked)"
experimental_result = "6.52 to 7.10"

[[record]]
molecule = "C[C@@H](NCc1cc(Cl)nc(N2Cc3ccc(C4(Cc5nncn5C)COC4)cc3C2=O)c1)C1CC1 (single isomer, unassigned)"
experimental_result = "> 7.10"

[[record]]
molecule = "C[C@H](NC1CCCC1)c1cc(Cl)nc(N2Cc3ccc(-c4ccc(Cl)cc4-c4nncn4C)cc3C2=O)c1 (single isomer, unassigned)"
experimental_result = "> 7.10"

[[record]]
molecule = "CN1CC2CC1CN2Cc1cc(N2Cc3ccc(C4(Cc5nncn5C)COC4)cc3C2=O)nc(C(F)(F)F)c1 (centres unmarked)"
experimental_result = "5.30 to 6.52"

[[record]]
molecule = "C[C@H]1C[C@H](C)CN(Cc2cc(Cl)nc(N3Cc4ccc(C5(Cc6nncn6C)COC5)cc4C3=O)c2)C1"
experimental_result = "> 7.10"

[[record]]
molecule = "Cc1cc(CN(C)CC2CC2)cc(N2Cc3ccc(-c4ccc(F)cc4-c4nncn4C)cc3C2=O)n1"
experimental_result = "> 7.10"

[[record]]
molecule = "CC1CCC(CNCc2cc(Cl)nc(N3Cc4ccc(C5(Cc6nncn6C)COC5)cc4C3=O)c2)O1 (centres unmarked)"
experimental_result = "6.52 to 7.10"

[[record]]
molecule = "Cc1cc(CNCC2CC2)cc(N2Cc3ccc(-c4ncc(Cl)cc4-c4nncn4C)cc3C2=O)n1"
experimental_result = "> 7.10"

[[record]]
molecule = "Cn1cnnc1CC1(c2ccc3c(c2)C(=O)N(c2cc(CNCC4CCC4)cc(Cl)n2)C3)CC(C#N)C1 (centres unmarked)"
experimental_result = "> 7.10"

[[record]]
molecule = "Cc1cncn1Cc1cc(N2Cc3ccc(C4(Cc5nncn5C)COC4)cc3C2=O)nc(C(F)(F)F)c1"
experimental_result = "5.30 to 6.52"


###

Biological target: human recombinant CBL-b (human Biotin CBL-b recombinant protein a.a. 39-426) (Homo sapiens)
Construct: human Biotin CBL-b recombinant protein a.a; 39-426; Biotin (biotinylated)
Experiment: Biochemical assay for CBL-b inhibition (ligand displacement TR-FRET)
Conditions: 50 nM CBL-b, 0.3 μM Bodipy FL-Probe, read-out: IC50 (CBL-b inhibition, group)
REPORTED_PROPERTY: IC50

[[record]]
molecule = "Cc1cn(Cc2cc(N3Cc4ccc(C5(Cc6nncn6C)COC5)cc4C3=O)nc(C(F)(F)F)c2)cn1 [Compound 70]"
experimental_result = "300 to 5000 nM"

[[record]]
molecule = "Cn1cnnc1CC1(c2ccc3c(c2)C(=O)N(c2cc(CNCC4CC4)cc(C(F)(F)F)c2)C3)COC1 [Compound 13]"
experimental_result = "80 to 300 nM"

[[record]]
molecule = "Cc1cc(CNCC2CC(F)(F)C2)cc(N2Cc3ccc(-c4ccc(F)cc4-c4nncn4C)cc3C2=O)n1 [Compound 260]"
experimental_result = "< 80 nM"

[[record]]
molecule = "CCN1CCC[C@@H]1CNCc1cc(C)nc(N2Cc3ccc(-c4ccc(F)cc4-c4nncn4C)cc3C2=O)c1 [Compound 317]"
experimental_result = "300 to 5000 nM"

